These entries and their values trace back to patent US20250215412A1.

Tgt: T1, Chryseobacterium defluvii deamidase polypeptide, wildtype, with His-tag (Chryseobacterium defluvii)
T1 sequence: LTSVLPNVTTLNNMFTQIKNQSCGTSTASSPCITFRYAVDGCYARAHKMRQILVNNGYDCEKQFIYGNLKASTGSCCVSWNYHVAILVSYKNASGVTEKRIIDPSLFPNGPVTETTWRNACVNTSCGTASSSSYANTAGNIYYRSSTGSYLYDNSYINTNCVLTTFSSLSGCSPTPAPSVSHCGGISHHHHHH
Experiment summary: cell-based or functional assay
Endpoint: NanoDSF thermal unfolding temperature (° C.)
Write the answer as a number in ° C., unit excluded.

Q) Which value of NanoDSF thermal unfolding temperature has been reported for Chryseobacterium defluvii propeptide L101A (protein) ATNQDVVGKENTSNHVAARDFGKTVPVGINEENGTLKVSFILSAQFYEIKPSKENEEYISLIRQAIQNESPIHVFMKLNSNEIVKVEKGTEEDVKYFRSIATKEVKEENRK in the records?
A) 82

Q) Look up NanoDSF thermal unfolding temperature for this binder: Chryseobacterium defluvii propeptide L101K (protein) ATNQDVVGKENTSNHVAARDFGKTVPVGINEENGTLKVSFILSAQFYEIKPSKENEEYISLIRQAIQNESPIHVFMKLNSNEIVKVEKGTEEDVKYFRSIKTKEVKEENRK
A) 80.5

Q) Given Chryseobacterium defluvii propeptide Y47T (protein) ATNQDVVGKENTSNHVAARDFGKTVPVGINEENGTLKVSFILSAQFTEIKPSKENEEYISLIRQAIQNESPIHVFMKLNSNEIVKVEKGTEEDVKYFRSILTKEVKEENRK , state its recorded NanoDSF thermal unfolding temperature.
A) 80.4

Q) Please give the measured NanoDSF thermal unfolding temperature for this binder: Chryseobacterium defluvii propeptide L101G (protein) ATNQDVVGKENTSNHVAARDFGKTVPVGINEENGTLKVSFILSAQFYEIKPSKENEEYISLIRQAIQNESPIHVFMKLNSNEIVKVEKGTEEDVKYFRSIGTKEVKEENRK
A) 79.8
